- assay-comment: Perfect off-state by site-specific incorporation of o-nitrobenzyl (o-NB) unit into RNase S' was determined after photolysis at 10 x E5 M/min
Non-standard residues stand in square brackets, D forms with d. Residues, ends and D or L forms follow the SMILES beside them. *: point of attachment. X2 = COC(=O)C(N*)c1ccccc1[N+](=O)[O-]; X3 = O=C(OCc1ccccc1[N+](=O)[O-])*; X1 = O=[N+]([O-])c1ccccc1CO*; Nle = CCCC[C@H](N)C(=O)O

molecule	RNase S' enzyme activity
CCCC[C@H](NC(=O)[C@H](Cc1c[nH]cn1)NC(=O)[C@H](CCC(=O)NC(C(=O)OC)c1ccccc1[N+](=O)[O-])NC(=O)[C@H](CCCN=C(N)N)NC(=O)[C@H](CCC(=O)O)NC(=O)[C@H](Cc1ccccc1)NC(=O)[C@H](CCCCN)NC(=O)[C@H](C)NC(=O)[C@H](C)NC(=O)[C@H](C)NC(=O)[C@@H](NC(=O)[C@H](CCC(=O)O)NC(=O)[C@@H](N)CCCCN)[C@@H](C)O)C(=O)N[C@@H](CC(=O)O)C(=O)N[C@@H](CO)C(=O)O (stereo partly specified) (H-KETAAAKFERE(X2)H[Nle]DS-OH)	0.37
CCCC[C@H](NC(=O)[C@H](Cc1c[nH]cn1)NC(=O)[C@H](CCC(N)=O)NC(=O)[C@H](CCCN=C(N)N)NC(=O)[C@H](CCC(=O)O)NC(=O)[C@H](Cc1ccccc1)NC(=O)[C@H](CCCCNC(=O)OCc1ccccc1[N+](=O)[O-])NC(=O)[C@H](C)NC(=O)[C@H](C)NC(=O)[C@H](C)NC(=O)[C@@H](NC(=O)[C@H](CCC(=O)O)NC(=O)[C@@H](N)CCCCN)[C@@H](C)O)C(=O)N[C@@H](CC(=O)O)C(=O)N[C@@H](CO)C(=O)O (H-KETAAAK(X3)FERQH[Nle]DS-OH)	1.04
CCCC[C@H](NC(=O)[C@H](Cc1c[nH]cn1)NC(=O)[C@H](CCC(N)=O)NC(=O)[C@H](CCCN=C(N)N)NC(=O)[C@H](CCC(=O)O)NC(=O)[C@H](Cc1ccccc1)NC(=O)[C@H](CCCCN)NC(=O)[C@H](C)NC(=O)[C@H](C)NC(=O)[C@H](C)NC(=O)[C@@H](NC(=O)[C@H](CCC(=O)O)NC(=O)[C@@H](N)CCCCN)[C@@H](C)O)C(=O)N[C@@H](CC(=O)OCc1ccccc1[N+](=O)[O-])C(=O)N[C@@H](CO)C(=O)O (H-KETAAAKFERQH[Nle]D(X1)S-OH)	0.78
CCCC[C@H](NC(=O)[C@H](Cc1c[nH]cn1)NC(=O)[C@H](CCC(N)=O)NC(=O)[C@H](CCCN=C(N)N)NC(=O)[C@H](CCC(=O)O)NC(=O)[C@H](Cc1ccccc1)NC(=O)[C@H](CCCCN)NC(=O)[C@H](C)NC(=O)[C@H](C)NC(=O)[C@H](C)NC(=O)[C@@H](NC(=O)[C@H](CCC(=O)OCc1ccccc1[N+](=O)[O-])NC(=O)[C@@H](N)CCCCN)[C@@H](C)O)C(=O)N[C@@H](CC(=O)O)C(=O)N[C@@H](CO)C(=O)O (H-KE(X1)TAAAKFERQH[Nle]DS-OH)	0.81
CCCC[C@H](NC(=O)[C@H](Cc1c[nH]cn1)NC(=O)[C@H](CCC(N)=O)NC(=O)[C@H](CCCN=C(N)N)NC(=O)[C@H](CCC(=O)OCc1ccccc1[N+](=O)[O-])NC(=O)[C@H](Cc1ccccc1)NC(=O)[C@H](CCCCN)NC(=O)[C@H](C)NC(=O)[C@H](C)NC(=O)[C@H](C)NC(=O)[C@@H](NC(=O)[C@H](CCC(=O)O)NC(=O)[C@@H](N)CCCCN)[C@@H](C)O)C(=O)N[C@@H](CC(=O)O)C(=O)N[C@@H](CO)C(=O)O (H-KETAAAKFE(X1)RQH[Nle]DS-OH)	0.97
CCCC[C@H](NC(=O)[C@H](Cc1c[nH]cn1)NC(=O)[C@H](CCC(N)=O)NC(=O)[C@H](CCCN=C(N)N)NC(=O)[C@H](CCC(=O)O)NC(=O)[C@H](Cc1ccccc1)NC(=O)[C@H](CCCCN)NC(=O)[C@H](C)NC(=O)[C@H](C)NC(=O)[C@H](C)NC(=O)[C@@H](NC(=O)[C@H](CCC(=O)O)NC(=O)[C@@H](N)CCCCNC(=O)OCc1ccccc1[N+](=O)[O-])[C@@H](C)O)C(=O)N[C@@H](CC(=O)O)C(=O)N[C@@H](CO)C(=O)O (H-K(X3)ETAAAKFERQH[Nle]DS-OH)	1.04

Recorded values, source ChEMBL document CHEMBL1136413.
